B1: NELF-E aptamer (parent)
chain: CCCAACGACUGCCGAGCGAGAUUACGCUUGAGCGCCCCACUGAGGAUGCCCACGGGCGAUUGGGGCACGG

# Variants of: B1
# protocol: HiTS-RAP
# experimental.conditions: with NELF-E (Drosophila)
pKd: −log10 of the molar value.
Binary classification by pKd, with 8 as an inclusive lower bound for class 1; all other cases are class 0.

Has A4U C13A a recorded pKd greater than or equal to 8?
class 1

Has U10G A39C a recorded pKd greater than or equal to 8?
class 0

Has G7U C53U a recorded pKd greater than or equal to 8?
class 1

Has U23G G34U a recorded pKd greater than or equal to 8?
class 1

Has U22G C66A a recorded pKd greater than or equal to 8?
class 1

Has G11U G20A a recorded pKd greater than or equal to 8?
class 1

Has A24G G64C a recorded pKd greater than or equal to 8?
class 1

Has A8U U22C a recorded pKd greater than or equal to 8?
class 1

Has U22G G32U a recorded pKd greater than or equal to 8?
class 1

Has A19G G26A a recorded pKd greater than or equal to 8?
class 1

Has A31U A39U a recorded pKd greater than or equal to 8?
class 0

Has A8G A59U a recorded pKd greater than or equal to 8?
class 0

Has A4G G44A a recorded pKd greater than or equal to 8?
class 0

Has U28C U41C a recorded pKd greater than or equal to 8?
class 0

Has C13G U29G a recorded pKd greater than or equal to 8?
class 1

Has C6G A31U a recorded pKd greater than or equal to 8?
class 1

Has G7U G45A a recorded pKd greater than or equal to 8?
class 0

Has G20A U41G a recorded pKd greater than or equal to 8?
class 1

Has C6G G26U a recorded pKd greater than or equal to 8?
class 1

Ref: the RNAGym collection of RNA variant scans (doi:10.1038/nmeth.2970)
